All figures here come from the supplement of paper PMC7877785.

Kindly state self-splicing fitness (ln) for each of the entries shown.
test: self-splicing fitness, log relative to wild type (ln ratio); higher = more splicing; Tetrahymena group I intron in knt gene, E. coli kanamycin selection, DiMSum; sequences stand for … in CUCUCU…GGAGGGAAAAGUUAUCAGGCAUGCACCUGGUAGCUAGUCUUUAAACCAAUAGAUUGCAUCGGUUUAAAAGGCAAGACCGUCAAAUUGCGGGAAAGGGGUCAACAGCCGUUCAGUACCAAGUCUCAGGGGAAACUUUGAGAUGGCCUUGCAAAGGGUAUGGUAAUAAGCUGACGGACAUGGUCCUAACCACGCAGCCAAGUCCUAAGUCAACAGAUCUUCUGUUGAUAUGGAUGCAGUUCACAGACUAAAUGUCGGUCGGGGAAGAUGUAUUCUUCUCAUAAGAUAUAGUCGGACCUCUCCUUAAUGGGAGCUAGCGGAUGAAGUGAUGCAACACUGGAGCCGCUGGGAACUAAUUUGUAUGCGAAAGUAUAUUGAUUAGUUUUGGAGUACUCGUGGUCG; conditions: 30 °C;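 note: selection with 25 µg/mL kanamycin versus none on LB agar overnight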
Enter a number only.

Name the recorded self-splicing fitness (ln) for CUUAAGCAAUAUUACGCGGG .
-2.83

Name the recorded self-splicing fitness (ln) for CUUAAGCAAUAUUACGUAAG .
-2.83

Name the recorded self-splicing fitness (ln) for CUUAAGCAAUAUUACGUCGA .
-1.85

Name the recorded self-splicing fitness (ln) for GUGAAGCAAUAUUACGCGGC .
-2.03

Name the recorded self-splicing fitness (ln) for ACAGAGCAAUAUUACGCCGC .
-3.09

Name the recorded self-splicing fitness (ln) for AAGCAGCAAUAUUACGCUAU .
-2.17

Name the recorded self-splicing fitness (ln) for AUCGAGCAAUAUUACGCACU .
-1.25

Name the recorded self-splicing fitness (ln) for CGGUAGCAAUAUUACGUCCG .
-2.86

----------
assay: self-splicing fitness, log relative to wild type (ln ratio); higher = more splicing; Tetrahymena group I intron in knt gene, E. coli kanamycin selection, DiMSum; sequences stand for … in CUCUCU…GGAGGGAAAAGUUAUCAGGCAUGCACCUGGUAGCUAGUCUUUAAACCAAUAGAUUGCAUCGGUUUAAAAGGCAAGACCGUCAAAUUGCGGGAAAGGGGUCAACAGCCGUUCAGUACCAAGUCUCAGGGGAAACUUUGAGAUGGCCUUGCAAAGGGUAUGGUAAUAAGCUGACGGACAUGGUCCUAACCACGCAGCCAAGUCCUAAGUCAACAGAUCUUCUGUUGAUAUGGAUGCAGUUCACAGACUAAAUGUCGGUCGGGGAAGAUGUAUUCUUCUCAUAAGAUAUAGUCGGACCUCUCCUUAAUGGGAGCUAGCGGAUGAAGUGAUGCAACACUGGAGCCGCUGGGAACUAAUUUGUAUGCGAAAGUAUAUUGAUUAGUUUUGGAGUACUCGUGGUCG; details: 30 °C
Category | rule: reported self-splicing fitness (ln) within range, see low bracket (below -3), middle bracket (-3 to below -2), high bracket (-2 or more)

Entry GACCAGCAAUAUUACGUAGA belongs to which category?
high bracket

Entry GGGAAGCAAUAUUACGAUGC belongs to which category?
high bracket

Entry AGUCAGCAAUAUUACGUAAG belongs to which category?
high bracket

Entry GACGAGCAAUAUUACGUCCU belongs to which category?
low bracket

Entry GAGCAGCAAUAUUACGUUCG belongs to which category?
high bracket

Entry CUAGAGCAAUAUUACGUAGU belongs to which category?
middle bracket

Entry UCGAAGCAAUAUUACGGUUU belongs to which category?
low bracket

Entry ACCAAGCAAUAUUACGGCUA belongs to which category?
high bracket

Entry CAAAAGCAAUAUUACGGGGC belongs to which category?
low bracket

Entry UGUCAGCAAUAUUACGAGGA belongs to which category?
middle bracket

Entry CGGCAGCAAUAUUACGUGUC belongs to which category?
low bracket

Entry UCGCAGCAAUAUUACGUGGC belongs to which category?
low bracket

Entry UCGUAGCAAUAUUACGUACA belongs to which category?
high bracket

Entry GUCUAGCAAUAUUACGAACC belongs to which category?
high bracket

Entry CGCAAGCAAUAUUACGUUGU belongs to which category?
low bracket

Entry GCUCAGCAAUAUUACGACAU belongs to which category?
high bracket

Entry CGCGAGCAAUAUUACGGUGG belongs to which category?
middle bracket

Entry GGGCAGCAAUAUUACGGAGU belongs to which category?
middle bracket

Entry ACCAAGCAAUAUUACGCGCU belongs to which category?
high bracket

Entry AGGGAGCAAUAUUACGGCAU belongs to which category?
low bracket

Entry UUUCAGCAAUAUUACGAGAC belongs to which category?
middle bracket

Entry AGCCAGCAAUAUUACGCAUG belongs to which category?
middle bracket

Entry UGGGAGCAAUAUUACGGCUG belongs to which category?
high bracket

Entry CACCAGCAAUAUUACGUGGU belongs to which category?
low bracket

Entry UAUCAGCAAUAUUACGCAAA belongs to which category?
high bracket

Entry CAGUAGCAAUAUUACGUCCA belongs to which category?
middle bracket

Entry CAAUAGCAAUAUUACGGUAU belongs to which category?
low bracket

Entry AGGAAGCAAUAUUACGGGAC belongs to which category?
low bracket

Entry UCAGAGCAAUAUUACGUGGU belongs to which category?
low bracket

----------
Kindly state self-splicing fitness (ln) for each of the entries shown.
assay: self-splicing fitness, log relative to wild type (ln ratio); higher = more splicing; Tetrahymena group I intron in knt gene, E. coli kanamycin selection, DiMSum; sequences stand for … in CUCUCU…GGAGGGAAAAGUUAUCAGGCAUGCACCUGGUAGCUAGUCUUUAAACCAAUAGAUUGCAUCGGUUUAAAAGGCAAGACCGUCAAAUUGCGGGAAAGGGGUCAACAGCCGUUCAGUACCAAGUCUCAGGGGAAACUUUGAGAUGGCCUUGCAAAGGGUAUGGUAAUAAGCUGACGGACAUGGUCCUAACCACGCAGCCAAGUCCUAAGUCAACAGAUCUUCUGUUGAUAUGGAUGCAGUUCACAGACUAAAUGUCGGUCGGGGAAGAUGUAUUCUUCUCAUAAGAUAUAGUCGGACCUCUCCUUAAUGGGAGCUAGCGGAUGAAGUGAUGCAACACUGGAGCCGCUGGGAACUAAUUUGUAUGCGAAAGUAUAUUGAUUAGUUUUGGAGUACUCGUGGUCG; details: 30 °C
Enter a number only.

Name the recorded self-splicing fitness (ln) for CAGCAGCAAUAUUACGCGCU .
-3.39

Name the recorded self-splicing fitness (ln) for GUAAAGCAAUAUUACGCGUC .
-1.05

Name the recorded self-splicing fitness (ln) for ACUGAGCAAUAUUACGAUGU .
-2.83

Name the recorded self-splicing fitness (ln) for GACGAGCAAUAUUACGACAU .
-2.93

Name the recorded self-splicing fitness (ln) for CGGGAGCAAUAUUACGCGGC .
-2.4

Name the recorded self-splicing fitness (ln) for GCAAAGCAAUAUUACGUCUA .
-0.983

Name the recorded self-splicing fitness (ln) for UCUAAGCAAUAUUACGACUG .
-0.955

Name the recorded self-splicing fitness (ln) for CCAGAGCAAUAUUACGAGUG .
-1.2

Name the recorded self-splicing fitness (ln) for GUGUAGCAAUAUUACGAUGG .
-2.91

Name the recorded self-splicing fitness (ln) for AUGUAGCAAUAUUACGCGUA .
-1.66

Name the recorded self-splicing fitness (ln) for GAACAGCAAUAUUACGGGAC .
-2.66

Name the recorded self-splicing fitness (ln) for AUAUAGCAAUAUUACGCUGG .
-2.06

Name the recorded self-splicing fitness (ln) for CUGGAGCAAUAUUACGUUGA .
-1.67

Name the recorded self-splicing fitness (ln) for GAGCAGCAAUAUUACGGUUU .
-3.11

Name the recorded self-splicing fitness (ln) for AUGGAGCAAUAUUACGCCUU .
-2.22

Name the recorded self-splicing fitness (ln) for AGACAGCAAUAUUACGGGCC .
-1.45

----------
Kindly state self-splicing fitness (ln) for each of the entries shown.
assay: self-splicing fitness, log relative to wild type (ln ratio); higher = more splicing; Tetrahymena group I intron in knt gene, E. coli kanamycin selection, DiMSum; sequences stand for … in CUCUCU…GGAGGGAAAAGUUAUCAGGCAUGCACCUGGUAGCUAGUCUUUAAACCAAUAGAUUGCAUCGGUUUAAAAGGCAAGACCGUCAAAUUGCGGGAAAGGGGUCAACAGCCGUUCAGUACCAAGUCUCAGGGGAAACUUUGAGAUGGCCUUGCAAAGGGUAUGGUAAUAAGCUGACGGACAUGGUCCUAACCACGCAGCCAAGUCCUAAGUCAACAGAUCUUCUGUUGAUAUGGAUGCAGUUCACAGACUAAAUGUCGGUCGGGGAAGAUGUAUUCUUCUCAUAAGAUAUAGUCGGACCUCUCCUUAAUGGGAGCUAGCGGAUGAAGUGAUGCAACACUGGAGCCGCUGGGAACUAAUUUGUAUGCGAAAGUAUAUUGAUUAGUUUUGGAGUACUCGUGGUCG; conditions: 30 °C
Enter a number only.

Name the recorded self-splicing fitness (ln) for AAGAAGCAAUAUUACGGCGC .
-0.183

Name the recorded self-splicing fitness (ln) for CGUUAGCAAUAUUACGACGU .
-2.74

Name the recorded self-splicing fitness (ln) for GUAGAGCAAUAUUACGACUG .
-1.22

Name the recorded self-splicing fitness (ln) for GGUGAGCAAUAUUACGGCCA .
-1

Name the recorded self-splicing fitness (ln) for GGCCAGCAAUAUUACGAUCG .
-3.35

Name the recorded self-splicing fitness (ln) for UCCGAGCAAUAUUACGUUCG .
-2.69

Name the recorded self-splicing fitness (ln) for GACAAGCAAUAUUACGGAUG .
-2.92

Name the recorded self-splicing fitness (ln) for CCAAAGCAAUAUUACGUACU .
-3.69

Name the recorded self-splicing fitness (ln) for CAUGAGCAAUAUUACGGUUA .
-2.75

Name the recorded self-splicing fitness (ln) for CGAAAGCAAUAUUACGAGCC .
-2.18

Name the recorded self-splicing fitness (ln) for GUCGAGCAAUAUUACGGCGU .
-0.43

Name the recorded self-splicing fitness (ln) for CGCGAGCAAUAUUACGUGAU .
-2.82

Name the recorded self-splicing fitness (ln) for CGAAAGCAAUAUUACGGAUG .
-0.462

Name the recorded self-splicing fitness (ln) for AAAUAGCAAUAUUACGGGUC .
-3.56

Name the recorded self-splicing fitness (ln) for CCAUAGCAAUAUUACGACAC .
-2.94

Name the recorded self-splicing fitness (ln) for GUAUAGCAAUAUUACGGUGU .
-3.29

Name the recorded self-splicing fitness (ln) for AGUAAGCAAUAUUACGUGCG .
-1.27

Name the recorded self-splicing fitness (ln) for UUGGAGCAAUAUUACGUGGA .
-2.9

Name the recorded self-splicing fitness (ln) for CAAUAGCAAUAUUACGCCAA .
-2.96

Name the recorded self-splicing fitness (ln) for CACAAGCAAUAUUACGCUAC .
-3.18

Name the recorded self-splicing fitness (ln) for GCUGAGCAAUAUUACGAUAG .
-1.35

Name the recorded self-splicing fitness (ln) for GCCGAGCAAUAUUACGAAAU .
-3.1

Name the recorded self-splicing fitness (ln) for AUUAAGCAAUAUUACGUAGU .
-1.53

Name the recorded self-splicing fitness (ln) for GAUGAGCAAUAUUACGUGGC .
-3.24

Name the recorded self-splicing fitness (ln) for UCACAGCAAUAUUACGGUAA .
-1

Name the recorded self-splicing fitness (ln) for AGCAAGCAAUAUUACGUCCU .
0.639

Name the recorded self-splicing fitness (ln) for ACAUAGCAAUAUUACGCACU .
-0.38

Name the recorded self-splicing fitness (ln) for UUGGAGCAAUAUUACGGGAC .
-4

Name the recorded self-splicing fitness (ln) for AAGGAGCAAUAUUACGAACU .
-1.63

Name the recorded self-splicing fitness (ln) for CGCGAGCAAUAUUACGGAUG .
-2.25

Name the recorded self-splicing fitness (ln) for UAAGAGCAAUAUUACGCGAU .
-3.86

Name the recorded self-splicing fitness (ln) for AGACAGCAAUAUUACGUGAA .
-2.03

Name the recorded self-splicing fitness (ln) for UAACAGCAAUAUUACGGCCU .
-1.21

Name the recorded self-splicing fitness (ln) for UGCCAGCAAUAUUACGUACA .
-0.269
